Ref: patent US8476306B2

# MEASURED TARGET: trypsin
# Sequence (P00760 24-246 limits assumed): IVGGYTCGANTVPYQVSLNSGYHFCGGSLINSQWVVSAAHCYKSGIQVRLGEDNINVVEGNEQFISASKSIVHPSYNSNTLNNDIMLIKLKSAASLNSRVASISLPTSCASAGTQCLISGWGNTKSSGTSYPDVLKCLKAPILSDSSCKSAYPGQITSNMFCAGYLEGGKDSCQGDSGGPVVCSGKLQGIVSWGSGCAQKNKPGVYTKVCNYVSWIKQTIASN
# ASSAY DETAILS: Inhibition constants for trypsin, determined in analogy to uPA
REPORTED PROPERTY: Ki (nM)
Answer format: numeric, nM implied, no suffix.

QUERY: Tell me Ki reported for Cc1ccc(CS(=O)(=O)N[C@H](CO)C(=O)NCC(=O)NCc2ccc(C(=N)N)cc2)cc1
RESULT: 210

QUERY: Tell us which Ki value is on record for N=C(N)c1ccc(CNC(=O)CNC(=O)[C@@H](CO)NS(=O)(=O)Cc2ccc(F)cc2)cc1
RESULT: 110

QUERY: Identify measured Ki associated with N=C(N)c1ccc(CNC(=O)CNC(=O)[C@@H](CO)NS(=O)(=O)Cc2ccc(Cl)cc2)cc1
RESULT: 350

QUERY: Indicate its recorded Ki; the molecule in question is COC(=O)c1ccc(CS(=O)(=O)N[C@H](CO)C(=O)NCC(=O)NCc2ccc(C(=N)N)cc2)cc1
RESULT: 180

QUERY: Annotate the molecule CC(O)[C@H](NC(=O)[C@@H](CO)NS(=O)(=O)Cc1ccccc1)C(=O)NCc1ccc(C(=N)N)cc1 (stereo partly shown) with its measured Ki.
RESULT: 30

QUERY: Indicate the recorded Ki value for this molecule: COC(=O)c1cccc(CS(=O)(=O)N[C@H](CO)C(=O)NCC(=O)NCc2ccc(C(=N)N)cc2)c1
RESULT: 290

QUERY: Complete the entry with Ki for N=C(N)c1ccc(CNC(=O)CNC(=O)[C@@H](CO)NS(=O)(=O)Cc2ccccc2)cc1
RESULT: 150

###

For each record, write down the corresponding half-life.
# ASSAY DETAILS: Elimination (β phase) half-life in rats after intravenous administration, plasma levels by HPLC
# MEASUREMENT SETUP: female, Wistar, rat, plasma, iv, 1 mg/kg
Structures can show the parent of a compound that is named as a salt.
Write the value in min as a bare number.

QUERY: Consider the molecule N=C(N)c1ccc(CNC(=O)[C@H](CO)NC(=O)[C@@H](CO)NS(=O)(=O)Cc2ccccc2)cc1 [R=H, X=CH, R1=CH2—OH] and give its recorded half-life.
RESULT: 30

QUERY: Provide one value: measured half-life of N=C(N)c1ccc(CNC(=O)[C@H](CCCCNC(=O)COCC(=O)NCCOCCOCCOCCOCCOCCOCCOCCN)NC(=O)[C@@H](CO)NS(=O)(=O)Cc2ccccc2)cc1 [Example 10, TFA]
RESULT: 52.8

QUERY: Return the recorded half-life value; entry: N=C(N)c1ccc(CNC(=O)[C@H](CCCCN)NC(=O)[C@@H](CO)NS(=O)(=O)Cc2ccccc2)cc1 [X=Lys, TFA]
RESULT: 42

QUERY: Specify measured half-life for N=C(N)c1ccc(CNC(=O)CNC(=O)[C@@H](CO)NS(=O)(=O)Cc2cccc(C(=O)O)c2)cc1.O=C(O)C(F)(F)F [R=3-COOH, X=CH, R1=H] .
RESULT: 78

QUERY: Supply reported half-life belonging to this molecule: N=C(N)c1ccc(CNC(=O)[C@H](CCCN=C(N)N)NC(=O)[C@@H](CO)NS(=O)(=O)Cc2ccccc2)cc1 [X=Arg, TFA]
RESULT: 36

###

# ASSAY DETAILS: Elimination (β phase) half-life in rats after intravenous administration, plasma levels by HPLC
# MEASUREMENT SETUP: rats, intravenous administration 1 mg/kg
Task for the reader: assign each of the following compounds its reported elimination (β phase) half-life t1/2.
API: value field is a number in min; no unit string.

QUERY: Given the compound N=C(N)c1ccc(CNC(=O)[C@H](CO)NC(=O)[C@@H](CO)NS(=O)(=O)Cc2cccc(C(=O)O)c2)cc1 , write its reported elimination (β phase) half-life t1/2.
RESULT: 25.8

QUERY: Give me measured elimination (β phase) half-life t1/2, please, for this compound: C[C@H](NC(=O)[C@@H](CO)NS(=O)(=O)Cc1cccc(C(=O)O)c1)C(=O)NCc1ccc(C(=N)N)cc1
RESULT: 25.2

QUERY: Answer with the recorded elimination (β phase) half-life t1/2 for the compound listed here: N=C(N)c1ccc(CNC(=O)CNC(=O)[C@@H](CO)NS(=O)(=O)Cc2ccc(C(=O)O)cc2)cc1
RESULT: 120

QUERY: Using known records, supply elimination (β phase) half-life t1/2 for N=C(N)c1ccc(CNC(=O)[C@H](CO)NC(=O)[C@@H](CO)NS(=O)(=O)Cc2ccc(C(=O)O)cc2)cc1
RESULT: 25.8

QUERY: Write down elimination (β phase) half-life t1/2 measured for item C[C@H](NC(=O)[C@@H](CO)NS(=O)(=O)Cc1ccc(C(=O)O)cc1)C(=O)NCc1ccc(C(=N)N)cc1
RESULT: 39.6

QUERY: Item N=C(N)c1ccc(CNC(=O)CNC(=O)[C@@H](CO)NS(=O)(=O)Cc2ccccc2)cc1 : provide elimination (β phase) half-life t1/2
RESULT: 17.4

QUERY: Give a short answer stating reported elimination (β phase) half-life t1/2 for N=C(N)c1ccc(CNC(=O)[C@H](CN)NC(=O)[C@@H](CO)NS(=O)(=O)Cc2ccccc2)cc1 .
RESULT: 24

###

# MEASURED TARGET: thrombin (Homo sapiens (Human), UniProt P00734)
Where a name gives a salt, the structure may show the parent alone.
The following ranges of Ki define the classes used here: low class = under 4 µM, middle class = from 4 µM up to 8 µM, high class = 8 µM and over

QUERY: Lab note: sort N=C(N)c1ccc(CNC(=O)CNC(=O)[C@@H](CO)NS(=O)(=O)Cc2ccccc2C(=O)O)cc1 into the matching Ki band.
RESULT: high class

QUERY: Hi, small favor: classify COC(=O)c1cccc(CS(=O)(=O)N[C@H](CO)C(=O)NCC(=O)NCc2ccc(C(=N)N)cc2)c1 by its Ki when you get a moment.
RESULT: high class

QUERY: Class (by measured Ki) for N=C(N)c1ccc(CNC(=O)[C@H](Cc2cnc[nH]2)NC(=O)[C@@H](CO)NS(=O)(=O)Cc2ccccc2)cc1
RESULT: high class

QUERY: In plain terms, what class is N=C(N)c1ccc(CNC(=O)[C@H](CCCCNC(=O)COCC(=O)NCCOCCOCCOCCOCCOCCOCCOCCN)NC(=O)[C@@H](CO)NS(=O)(=O)Cc2ccccc2)cc1 [Example 10, TFA] ?
RESULT: low class

QUERY: Which Ki category applies to N=C(N)c1ccc(CNC(=O)[C@H](CO)NC(=O)[C@@H](CO)NS(=O)(=O)Cc2ccccc2)cc1 here?
RESULT: high class

QUERY: // bin(item) where item = N=C(N)c1ccc(CNC(=O)[C@H](CO)NC(=O)[C@@H](CO)NS(=O)(=O)Cc2ccc(C(=O)O)cc2)cc1
RESULT: high class

QUERY: Which category does the recorded Ki put COC(=O)c1ccc(CS(=O)(=O)N[C@H](CO)C(=O)N[C@@H](CO)C(=O)NCc2ccc(C(=N)N)cc2)cc1 in?
RESULT: middle class

QUERY: Hey, which category is N=C(N)c1ccc(CNC(=O)[C@H](CCCCN)NC(=O)[C@@H](CO)NS(=O)(=O)Cc2ccccc2)cc1 [X=Lys, TFA] in, do you know?
RESULT: middle class

QUERY: Band for C[C@H](NC(=O)[C@@H](CO)NS(=O)(=O)Cc1ccc(C(=O)O)cc1)C(=O)NCc1ccc(C(=N)N)cc1 ?
RESULT: low class

###

Structures can show the parent of a compound that is named as a salt.
Answer each item with its documented Ki.
Numeric answer only, unit nM assumed.

QUERY: Report Ki on UniProtKB P00749 for this entry: N=C(N)c1ccc(CNC(=O)CNC(=O)[C@@H](CO)NS(=O)(=O)Cc2ccc(Cl)c(Cl)c2)cc1 [R=3,4-di-Cl, X=CH, R1=H]
RESULT: 110

QUERY: Output reported Ki of the compound N=C(N)c1ccc(CNC(=O)CNC(=O)[C@@H](CO)NS(=O)(=O)Cc2cccc(C(=O)O)c2)cc1.O=C(O)C(F)(F)F [R=3-COOH, X=CH, R1=H] on UniProtKB P00749.
RESULT: 160

QUERY: Recall the reported Ki of N=C(N)c1ccc(CNC(=O)[C@H](Cc2cnc[nH]2)NC(=O)[C@@H](CO)NS(=O)(=O)Cc2ccccc2)cc1 [Example 12, Benzylsulfonyl-dSer-His-4-Amba] on UniProtKB P00749 and write it down.
RESULT: 110

QUERY: Please tell me the measured Ki for N#Cc1ccc(CS(=O)(=O)N[C@H](CO)C(=O)NCC(=O)NCc2ccc(C(=N)N)cc2)cc1 [R=4-CN, X=CH, R1=CH] ; system: UniProtKB P00749.
RESULT: 89

QUERY: Answer briefly: Ki recorded on UniProtKB P00749 for N=C(N)c1ccc(CNC(=O)[C@H](COCc2ccccc2)NC(=O)[C@@H](CO)NS(=O)(=O)Cc2ccccc2)cc1 [R=H, X=CH, R1=CH2—O(Bzl)]
RESULT: 28

QUERY: Tell me its Ki on UniProtKB P00749: COC(=O)c1cccc(CS(=O)(=O)N[C@H](CO)C(=O)NCC(=O)NCc2ccc(C(=N)N)cc2)c1 [R=3-COOMe, X=CH, R1=H]
RESULT: 120

QUERY: Give measured Ki for N=C(N)c1ccc(CNC(=O)CNC(=O)[C@@H](CN)NS(=O)(=O)Cc2ccccc2)cc1 [Example 11, Benzylsulfonyl-dDap-Gly-4-Amba] (UniProtKB P00749).
RESULT: 180

QUERY: Specify the recorded Ki for N=C(N)c1ccc(CNC(=O)CNC(=O)[C@@H](CO)NS(=O)(=O)Cc2ccc(Cl)cc2)cc1 [R=4-Cl, X=CH, R1=H] , system: UniProtKB P00749.
RESULT: 32

QUERY: // fetch Ki for N=C(N)c1ccc(CNC(=O)[C@H](CO)NC(=O)[C@@H](CO)NS(=O)(=O)Cc2cccc(C(=O)O)c2)cc1 [R=3-COOH, X=CH, R1=CH2—OH] ; system: UniProtKB P00749
RESULT: 75

QUERY: Give UniProtKB P00749 Ki for the following compound: N=C(N)c1ccc(CNC(=O)CNC(=O)[C@@H](CO)NS(=O)(=O)Cc2ccc(CC(=O)O)cc2)cc1 [Example 13]
RESULT: 130

QUERY: Look up UniProtKB P00749 data: Ki of CC(OCc1ccccc1)[C@H](NC(=O)[C@@H](CO)NS(=O)(=O)Cc1ccccc1)C(=O)NCc1ccc(C(=N)N)cc1 (some centres unmarked) [R=H, X=CH, R1=CH(OBzl)CH3] , then report it.
RESULT: 61

QUERY: Determine reported Ki for C[C@H](NC(=O)[C@@H](CO)NS(=O)(=O)Cc1cccc(C(=O)O)c1)C(=O)NCc1ccc(C(=N)N)cc1 [R=3-COOH, X=CH, R1=CH3] ; test system: UniProtKB P00749.
RESULT: 30

QUERY: Check UniProtKB P00749 data and give Ki for C[C@H](NC(=O)[C@@H](CO)NS(=O)(=O)Cc1ccc(C(=O)O)cc1)C(=O)NCc1ccc(C(=N)N)cc1 [R=4-COOH, X=CH, R1=CH3] .
RESULT: 38

QUERY: Give Ki only, for N=C(N)c1ccc(CNC(=O)[C@H](CCCCNC(=O)COCC(=O)NCCOCCOCCOCCOCCOCCOCCOCCN)NC(=O)[C@@H](CO)NS(=O)(=O)Cc2ccccc2)cc1 [Example 10, TFA] , using UniProtKB P00749 data.
RESULT: 42
